// provenance: patent US20230416692A1

Test system: A549-hACE2 cells
ASSAY_CONTEXT: human
READOUT_LABEL: CC50 (µM)
Enter your answer as a number in µM; do not include the unit.

Inquiry: In one line, give reported CC50 of the entry O=C(Nc1ccc([N+](=O)[O-])cc1Cl)c1cc(Cl)ccc1O [Niclosamide] .
Reply text: 1.28

Inquiry: In one line, give reported CC50 of the entry `O=C1Nc2ccc(Cl)cc2[C@@](C#CC2CC2)(C(F)(F)F)O1` .
Reply text: 37.6

* * *

READOUT_LABEL: CC50

Inquiry: Jot down CC50 (A549-hACE2 cells) of C[C@@]1(O)[C@H](O)[C@@H](CO)O[C@H]1n1ccc2c(N)ncnc21 [MK-0608] .
Reply text: > 50 µM

Inquiry: Jot down CC50 (A549-hACE2 cells) of CC[C@@H]1C[C@]1(NC(=O)[C@@H]1C[C@@H](Oc2cc(-c3csc(NC(C)C)n3)nc3c(Cl)c(OCCN4CCOCC4)ccc23)CN1C(=O)[C@@H](NC(=O)O[C@@H]1C[C@@H]2C[C@@H]2C1)C(C)(C)C)C(=O)O [GS-9451] .
Reply text: > 50 µM

Inquiry: Jot down CC50 (A549-hACE2 cells) of CC(C)OC(=O)[C@H](C)N[P@+]([O-])(OC[C@H]1O[C@@](C#N)(c2ccc3c(N)ncnn23)[C@](C)(O)[C@@H]1OC(=O)C(C)C)Oc1ccccc1 [GS-6620] .
Reply text: > 50 µM

Inquiry: Jot down CC50 (A549-hACE2 cells) of COc1ccc2c(O[C@@H]3C[C@H]4C(=O)N[C@]5(P(=O)(O)Cc6c(F)cccc6F)C[C@H]5CCCCCCC[C@H](NC(=O)OC5CCCC5)C(=O)N4C3)cc(-c3csc(NC(C)C)n3)nc2c1Cl [GS-9256] .
Reply text: 31.8 µM

Inquiry: Jot down CC50 (A549-hACE2 cells) of CC(C)[C@@]1(C(=O)N[C@H]2CC(=O)O[C@]2(O)CF)CC(c2nccc3ccccc23)=NO1 [Nivocasan] .
Reply text: > 50 µM

Inquiry: Jot down CC50 (A549-hACE2 cells) of Nc1ncnc2c1ncn2[C@@H]1O[C@H](OCP(=O)(O)O)C=C1F [Rovafovir] .
Reply text: > 50 µM
